This collection of values is drawn from the supplement of paper PMC12494721.

System: Escherichia coli IAI1
Test Description: growth (OD595) fold change vs plate DMSO controls (fold change (ratio)); higher = more growth
Experimental Conditions: incubation time: 27 h, anaerobic, 37 °C
Structures can show the parent of a compound that is named as a salt.
Note to self: values exactly at 1 are MET. So growth at or above 1 is MET, below is NOT MET.

Is reported growth greater than or equal to 1 here: COc1ccc2c3c1O[C@H]1C[C@@H](O)C=C[C@@]31CCN(C)C2 [Galanthamine hydrobromide] (20 µM)
MET

Is reported growth greater than or equal to 1 here: CCn1nc(C(=O)O)c(=O)c2cc3c(cc21)OCO3 [Cinoxacin] (20 µM)
NOT MET

Is reported growth greater than or equal to 1 here: COc1c(N2CCNC(C)C2)c(F)cc2c(=O)c(C(=O)O)cn(C3CC3)c12 (stereo not drawn) [Gatifloxacin] (20 µM)
NOT MET

---

System: Klebsiella aerogenes DSM 30053
Test Description: fold change of Putrescine concentration vs plate DMSO controls (fold change (ratio)); higher = more amine produced, active = hit call of the paper (significant change in both replicates, either direction)
Experimental Conditions: incubation time: 27 h, anaerobic, 37 °C
Structures can show the parent of a compound that is named as a salt.
Assignment: determine reported fold change of Putrescine concentration for the given compounds.
// print number alone

For the compound shown here, CN1CC(O)c2cc(N=NC(N)=O)c(O)cc21 (stereo not drawn) [Carbazochrome] (20 µM) , give the reported fold change of Putrescine concentration.
1.01

For the compound shown here, O=C(O)Cc1cc(I)c(Oc2ccc(O)c(I)c2)c(I)c1 [Tiratricol] (20 µM) , give the reported fold change of Putrescine concentration.
1.01

For the compound shown here, O=c1cc(-c2ccc(O)c(O)c2)oc2cc(O)cc(O)c12 [Luteolin] (20 µM) , give the reported fold change of Putrescine concentration.
0.991

For the compound shown here, COC(=O)[C@@H]1[C@H]2C[C@H]3c4[nH]c5ccccc5c4CCN3C[C@@H]2CC[C@@H]1O [Yohimbine hydrochloride] (20 µM) , give the reported fold change of Putrescine concentration.
1.01

For the compound shown here, c1ccc(C2CN3CCSC3=N2)cc1 (stereo not drawn) [Tetramisole hydrochloride] (20 µM) , give the reported fold change of Putrescine concentration.
1.03

For the compound shown here, OC(CCCN1CCCCC1)(c1ccccc1)c1ccccc1 [Diphenidol hydrochloride] (20 µM) , give the reported fold change of Putrescine concentration.
1.02

For the compound shown here, CN/C(=N\CCSCc1nc[nH]c1C)NC#N [Cimetidine] (20 µM) , give the reported fold change of Putrescine concentration.
0.979

For the compound shown here, CN(C/C=C/C#CC(C)(C)C)Cc1cccc2ccccc12 [Terbinafine] (20 µM) , give the reported fold change of Putrescine concentration.
1.01

---

System: Klebsiella aerogenes DSM 30053
Test Description: fold change of Histamine concentration vs plate DMSO controls (fold change (ratio)); higher = more amine produced, active = hit call of the paper (significant change in both replicates, either direction)
Experimental Conditions: incubation time: 27 h, anaerobic, 37 °C
Assignment: determine reported fold change of Histamine concentration for the given compounds.

For the compound shown here, NS(=O)(=O)c1cc(C(=O)O)cc(N2CCCC2)c1Oc1ccccc1 [Piretanide] (20 µM) , give the reported fold change of Histamine concentration.
1.01 (inactive)

For the compound shown here, O=C(O)c1ccccc1Nc1cccc(C(F)(F)F)c1 [Flufenamic acid] (20 µM) , give the reported fold change of Histamine concentration.
0.993 (inactive)

For the compound shown here, Cc1c(OCC(F)(F)F)ccnc1C[S+]([O-])c1nc2ccccc2[nH]1 (centres undefined) [Lansoprazole] (20 µM) , give the reported fold change of Histamine concentration.
1.03 (inactive)

For the compound shown here, CCOc1ccc2nc3cc(N)ccc3c(N)c2c1 [Ethacridine lactate] (20 µM) , give the reported fold change of Histamine concentration.
0.985 (inactive)
